# melting point per entry
experimental-readout: melting point

| compound | obs-value |
| --- | --- |
| O=C(Nc1cccc(-n2c(=O)c(Cc3cccnc3)nc3cccnc32)c1)Oc1ccccc1 | 227 to 232 °C |
| O=C(Nc1ccc(F)c(-n2c(=O)c(Cc3cccnc3)nc3cccnc32)c1)c1ccc2ccccc2c1 [Example 41(20)] | 264 to 268 °C |
| O=C(O)CCC(=O)Nc1cccc(-c2cccc(-n3c(=O)c(Cc4cccnc4)nc4cccnc43)c2)c1 [Example 82(1)] | 193 to 199 °C |
| O=c1c(Cc2ccccc2)nc2cccnc2n1-c1cccc(-c2nc3ccccc3s2)c1 [Example 45(8)] | 197 to 198 °C |
| CCC(=O)Nc1cccc(-c2cccc(-n3c(=O)c(Cc4cccnc4)nc4cccnc43)c2)c1 [Example 76(5)] | 223 to 224 °C |
| O=c1c(Cc2ccccc2)nc2cccnc2n1-c1cccc(C(F)(F)F)c1 [Example 45(10)] | 125 to 127 °C |
